Molecular target: HIV-1 integrase (Human immunodeficiency virus type 1 group M subtype B (isolate HXB2) (HIV-1), UniProt P04585)
Test: biochemical
Type: biochemical
Protocol: The capacity of the compound to inhibit HIV integrase in a cell-free system was assessed. An HIV Integrase Assay System (XpressBio Life Science Products; Thurmont, Md., www.expressbio.com) was used. […] The integrase cleaves the donor substrate and integrates it into the target substrate, which is now in solution phase—the integrated product (the amount is indicative of integrase activity) was detected using an antibody specific for the recombinant target/donor sequence. […]
pIC50: −log10 of the molar value.
RESULT TYPE: pIC50

- COMPOUND: "Cn1cnc(-c2nnc(Cc3ccc(F)cc3)o2)c(O)c1=O [COTI-HIV1Doxo]"
  RESULT TYPE: "pIC50"
  RESULT VALUE: "~5.00"
